# measured-on: HDM2 (truncated, residues 17 to 125, containing p53 binding surface) (Homo sapiens (Human), UniProt Q00987)
# Sequence (Q00987 17-125): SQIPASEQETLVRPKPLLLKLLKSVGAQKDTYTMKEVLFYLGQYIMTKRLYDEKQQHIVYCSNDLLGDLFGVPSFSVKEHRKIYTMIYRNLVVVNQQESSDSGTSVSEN
# test-summary: HDM2 FRET assay (inhibition of binding of FITC labeled p53-site peptide to HDM2)
# assay-setup: Table 23
readout-kind: pIC50
Please report pIC50 as the negative decimal logarithm of the molar concentration, giving only the number.

Sample records with pIC50:
C[C@H]1CC[C@H](Cn2c(C(F)C3CCCCC3)nc3nc(-c4noc(=O)[nH]4)nc(-c4cccc(Cl)c4)c32)CC1 (mixture of isomers) : 7.46
COC(C)(c1c(F)cccc1F)c1nc2nc(-c3n[nH]c(=O)o3)nc(-c3cncc(Cl)c3)c2n1C[C@H]1CC[C@H](C)CC1 (single isomer, unassigned) [Example 23.89] : 8.29
COC(C)(c1ccccn1)c1nc2nc(-c3n[nH]c(=O)o3)nc(-c3cccc(Cl)c3)c2n1C[C@H]1CC[C@H](C)CC1 (single isomer, unassigned) [Example 23.54] : 7.87
COC(c1nc2nc(-c3n[nH]c(=O)o3)nc(-c3cccc(Cl)c3)c2n1C[C@H]1CC[C@H](C)CC1)C1CCOCC1 (mixture of isomers) : 7.91

Okay, next one:
Prompt line: Report measured pIC50; entry is COC(C)(c1ncccc1F)c1nc2nc(-c3n[nH]c(=O)o3)nc(-c3cncc(Cl)c3)c2n1C[C@H]1CC[C@H](C)CC1 (single isomer, unassigned) [Example 23.86]
Response line: 9.17

----------
Each entry below lists one item and its recorded IC50 value.
# measured-on: HDM2 (truncated, residues 17 to 125, containing p53 binding surface) (Homo sapiens (Human))
# test-summary: HDM2 FRET assay (inhibition of binding of FITC labeled p53-site peptide to HDM2)
# assay-setup: Table 23
Answer in nM, number only, no unit symbol.

CC(c1c(F)cccc1F)c1nc2nc(-c3noc(=O)[nH]3)nc(-c3cncc(Cl)c3)c2n1C[C@H]1CC[C@H](C)CC1 (mixture of isomers) : 2.23
COC1(c2nc3nc(-c4n[nH]c(=O)o4)nc(-c4cncc(Cl)c4)c3n2C[C@H]2CC[C@H](C)CC2)CCOc2cccnc21 (mixture of isomers) : 7.41
COc1ccccc1C(C)(OC)c1nc2nc(-c3noc(=O)[nH]3)nc(-c3cncc(Cl)c3)c2n1C[C@H]1CC[C@H](C)CC1 (mixture of isomers) : 3.8
COC(C)(c1ccccn1)c1nc2nc(-c3n[nH]c(=O)o3)nc(-c3cccc(Cl)c3)c2n1C[C@H]1CC[C@H](C)CC1 (single isomer, unassigned) [Example 23.55] : 4.26
COCC(C)(OC)c1nc2nc(-c3noc(=O)[nH]3)nc(-c3cncc(Cl)c3)c2n1C[C@H]1CC[C@H](C)CC1 (mixture of isomers) : 5.37

Could you now look at the following compound, please?
Prompt line: Quote IC50 reported for COCC(C)(F)c1nc2nc(-c3n[nH]c(=O)o3)nc(-c3cncc(Cl)c3)c2n1C[C@H]1CC[C@H](C)CC1 (mixture of isomers) please.
Response line: 3.93

----------
# measured-on: HDM2 (truncated, residues 17 to 125, containing p53 binding surface) (Homo sapiens (Human), UniProt Q00987)
# test-summary: HDM2 FRET assay (inhibition of binding of FITC labeled p53-site peptide to HDM2)
# assay-setup: Table 23
readout-kind: pIC50
To interpret pIC50, take it as minus log10 of a concentration measured in moles per litre.

Examples with answers:
CC(F)(c1ncccc1F)c1nc2nc(-c3noc(=O)[nH]3)nc(-c3cncc(Cl)c3)c2n1C[C@H]1CC[C@H](C)CC1 (single isomer, unassigned) [Example 23.98] : 8.01
CC(c1ccccc1C#N)c1nc2nc(-c3noc(=O)[nH]3)nc(-c3cncc(Cl)c3)c2n1C[C@H]1CC[C@H](C)CC1 (mixture of isomers) : 8.62
CC(F)(c1ccccc1F)c1nc2nc(-c3noc(=O)[nH]3)nc(-c3cncc(Cl)c3)c2n1C[C@H]1CC[C@H](C)CC1 (single isomer, unassigned) [Example 23.34] : 8.03
COC(c1nc2nc(-c3n[nH]c(=O)o3)nc(-c3cccc(Cl)c3)c2n1C[C@H]1CC[C@H](C)CC1)C1CCCCC1 (mixture of isomers) : 7.64
CC(F)(c1c(F)cccc1F)c1nc2nc(-c3noc(=O)[nH]3)nc(-c3cncc(Cl)c3)c2n1C[C@H]1CC[C@H](C)CC1 (single isomer, unassigned) [Example 23.69] : 9.81
CC(F)(c1c(F)cccc1F)c1nc2nc(-c3noc(=O)[nH]3)nc(-c3cncc(Cl)c3)c2n1C[C@H]1CC[C@H](C)CC1 (single isomer, unassigned) [Example 23.68] : 8.37
C[C@H]1CC[C@H](Cn2c(C(O)C3CCCCC3)nc3nc(-c4noc(=O)[nH]4)nc(-c4cccc(Cl)c4)c32)CC1 (mixture of isomers) : 8.14
CC(F)(c1ccccn1)c1nc2nc(-c3noc(=O)[nH]3)nc(-c3cccc(Cl)c3)c2n1C[C@H]1CC[C@H](C)CC1 (single isomer, unassigned) [Example 23.30] : 8.17
CC(c1ccccc1F)c1nc2nc(-c3n[nH]c(=O)o3)nc(-c3cncc(Cl)c3)c2n1C[C@H]1CC[C@H](C)CC1 (mixture of isomers) : 8.67
CC(O)(c1nc2nc(-c3n[nH]c(=O)o3)nc(-c3cccc(Cl)c3)c2n1C[C@H]1CC[C@H](C)CC1)C1CCCCC1 (mixture of isomers) : 6.67

Prompt line: Look up and state reported pIC50 for COC(C)(c1ncccc1F)c1nc2nc(-c3n[nH]c(=O)o3)nc(-c3cncc(Cl)c3)c2n1C[C@H]1CC[C@H](C)CC1 (single isomer, unassigned) [Example 23.87]
Response line: 7.71
